assayed_system: CDK1/Cyclin B1 (Homo sapiens)
procedure_text: CDK1/Cyclin B1 Biochemical Assay (TR-FRET), 1 mM ATP
condition_summary: 0.15 μM Rb (Ser780)-biotin substrate, pH7.0, 60 min preincubation, 90 min reaction, room temperature
endpoint_name: IC50 (nM)
Give the quantity in nM, number only.

CC(C)(C)NC(=O)O[C@H]1CC[C@@H](c2cc(Nc3ccc4c(c3F)CS(=O)(=O)N4)n[nH]2)C1 (relative stereo) [Example 423]	252

Now let's try a different one.
Task item: Param readout = IC50; param system = CDK1/Cyclin B1 (Homo sapiens); param query = O=C(NC12CC(O)(C1)C2)O[C@H]1CC[C@@H](c2cc(Nc3cc4c(cc3F)S(=O)(=O)NC4)n[nH]2)C1 (relative stereo) [Example 456] ; response: value
Reply: 550

* * *

Reported log10 IC50 is given for each of the following compounds.
assayed_system: CDK1/Cyclin B1 (Homo sapiens, UniProt P06493)
Sequence (P06493 whole entry): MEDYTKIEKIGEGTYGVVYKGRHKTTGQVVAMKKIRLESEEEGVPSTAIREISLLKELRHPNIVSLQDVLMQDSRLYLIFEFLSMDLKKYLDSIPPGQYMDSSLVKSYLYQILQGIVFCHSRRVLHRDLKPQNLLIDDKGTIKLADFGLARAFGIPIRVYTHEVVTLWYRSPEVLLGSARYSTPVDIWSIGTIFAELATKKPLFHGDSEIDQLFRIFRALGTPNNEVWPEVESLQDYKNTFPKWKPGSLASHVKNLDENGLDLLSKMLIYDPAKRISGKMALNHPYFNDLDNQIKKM
Sequence (P14635 whole entry partner): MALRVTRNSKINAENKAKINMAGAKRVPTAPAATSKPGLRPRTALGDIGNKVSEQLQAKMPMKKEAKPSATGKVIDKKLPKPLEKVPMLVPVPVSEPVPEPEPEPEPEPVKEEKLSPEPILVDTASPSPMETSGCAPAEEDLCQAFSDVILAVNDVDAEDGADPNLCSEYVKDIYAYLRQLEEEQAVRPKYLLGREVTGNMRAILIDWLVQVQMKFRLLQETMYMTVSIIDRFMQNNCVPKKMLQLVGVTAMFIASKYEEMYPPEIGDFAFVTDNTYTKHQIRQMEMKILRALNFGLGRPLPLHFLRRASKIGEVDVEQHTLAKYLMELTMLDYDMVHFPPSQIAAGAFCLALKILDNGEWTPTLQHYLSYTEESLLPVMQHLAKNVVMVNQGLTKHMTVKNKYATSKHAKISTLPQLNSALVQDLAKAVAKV
procedure_text: CDK1/Cyclin B1 Biochemical Assay (TR-FRET), 0.015 mM ATP
condition_summary: 0.15 μM Rb (Ser780)-biotin substrate, pH7.0, 60 min preincubation, 120 min reaction, room temperature
Please interpret these as log10 of IC50 where IC50 is in nM.

Examples with their reported log10 IC50 follow.
[2H]C([2H])([2H])N1c2c(F)cc(Nc3cc([C@@H]4CC[C@H](OC(=O)NC5(C)CC5)C4)[nH]n3)cc2CS1(=O)=O (single isomer, unassigned) [Example 291a]	1.88
CN1c2ccc(Nc3cc([C@@H]4CC[C@H](OC(=O)NC5(C)CCOC5)C4)[nH]n3)c(F)c2CS1(=O)=O (single isomer, unassigned) [Example 349c]	1.89
CCCNC(=O)O[C@H]1CC[C@@H](c2cc(Nc3ccc4c(c3F)CN(C3CC3)S4(=O)=O)n[nH]2)C1 (single isomer, unassigned) [Example 118b]	2.23
CC(C)NC(=O)O[C@H]1CC[C@@H](c2cc(Nc3ccc4c(c3)C(C)S(=O)(=O)N4)n[nH]2)C1 (single isomer, unassigned) [Example 384a]	1.34
[2H]C([2H])([2H])N1c2ccc(Nc3cc([C@@H]4CC[C@H](OC(=O)NC(C)C)C4)[nH]n3)c(F)c2CS1(=O)=O (single isomer, unassigned) [Example 267b]	1.86
O=C(NC1CCCC1)O[C@@H]1CC[C@H](c2cc(Nc3ccc4c(c3F)CS(=O)(=O)N4)n[nH]2)C1 (single isomer, unassigned) [Example 400a]	2.19

Task item: Param readout = log10 IC50; param system = CDK1/Cyclin B1 (Homo sapiens, UniProt P06493); param query = [2H]C([2H])([2H])N1c2ccc(Nc3cc([C@@H]4CC[C@H](OC(=O)NCCC)C4)[nH]n3)c(F)c2CS1(=O)=O (single isomer, unassigned) [Example 268a] ; response: value
Reply: 2.45

Task item: Param readout = log10 IC50; param system = CDK1/Cyclin B1 (Homo sapiens, UniProt P06493); param query = CN1Cc2c(ccc(Nc3cc([C@@H]4CC[C@H](OC(=O)NC5(C)CCOC5)C4)[nH]n3)c2F)S1(=O)=O (relative stereo) ; response: value
Reply: 2.55

Task item: Param readout = log10 IC50; param system = CDK1/Cyclin B1 (Homo sapiens, UniProt P06493); param query = CC(C)NC(=O)O[C@H]1CC[C@@H](c2cc(Nc3ccc4c(c3)C(C)(C)NS4(=O)=O)n[nH]2)C1 (relative stereo) ; response: value
Reply: 2.03

Task item: Param readout = log10 IC50; param system = CDK1/Cyclin B1 (Homo sapiens, UniProt P06493); param query = COCC(C)NC(=O)O[C@H]1CC[C@@H](c2cc(Nc3ccc4c(c3F)CN(C3CC3)S4(=O)=O)n[nH]2)C1 (relative stereo) ; response: value
Reply: 2.54

Task item: Param readout = log10 IC50; param system = CDK1/Cyclin B1 (Homo sapiens, UniProt P06493); param query = O=C(NCC1CC1)O[C@H]1CC[C@@H](c2cc(Nc3ccc4c(c3F)CNS4(=O)=O)n[nH]2)C1 (relative stereo) ; response: value
Reply: 2.37
